Counter-ions that a name gives are not always drawn.

| compound | melting point [°C] |
| --- | --- |
| O=C(C(c1ccc(Cl)c(Cl)c1)C1CCCC1)N1CCC(N2CCCCC2)CC1 (stereo not shown) (as salt: HCl) | 230 |
| CCOC(=O)C1CCN(C2CCN(C(=O)C(c3ccccc3)C3CCCC3)CC2)CC1 (stereo not shown) (as salt: HCl) | 88 |
| CCN(CC)C1CCN(C(=O)C(c2ccccc2)C2CCCC2)CC1 (stereo not shown) (as salt: HCl) | 79 |
| O=C(C(c1ccccc1)C1CCCC1)N1CCC(N2CCC(O)CC2)CC1 (stereo not shown) (as salt: HCl) | 90 |
| CCN(CC)CCNC(=O)C(c1ccccc1)C1CCCC1 (single isomer, unassigned; (-)) (as salt: HCl) [Compound 51] | 146 |
| O=C(C(c1ccccc1)C1CCCC1)N1CCC(N2CCCCC2)CC1 (stereo not shown) (as salt: HCl) | 112 |
| CC1CCCCN1CCCNC(=O)C(c1ccccc1)C1CCCC1 (stereo not shown) (as salt: HCl) | 69 |
| O=C(NCCN1CCN(C(=O)c2c(F)cccc2Cl)CC1)[C@@H]1C[C@H]1c1ccccc1 (relative stereo) (as salt: HCl) | 122 |
| CCN(CC)CCNC(=O)C(c1ccccc1)C1CCCC1 (stereo not shown) (as salt: HCl) [Compound 15] | 129 |
| O=C(NCCN1CCN(Cc2ccccc2)CC1)[C@@H]1C[C@H]1c1ccccc1 (relative stereo) (as salt: HCl) | 195 |
| O=C(NCCCN1CCOCC1)C(c1ccccc1)C1CCCC1 (stereo not shown) (as salt: HCl) | 145 |
| NCCNC(=O)C(c1ccccc1)C1CCCC1 (stereo not shown) (as salt: HCl) | 290 |
| O=C(NCCN1CCN(Cc2ccc(Cl)c(Cl)c2)CC1)[C@@H]1C[C@H]1c1ccccc1 (relative stereo) (as salt: HCl) | 145 |
| CN(C)[C@H]1CCN(C(=O)C(c2ccccc2)C2CCCC2)C1 (stereo partly shown) (as salt: Na) | 68 |
| CCN(CC)CCNC(=O)C(c1ccccc1)C1CCCC1 (single isomer, unassigned; (+)) (as salt: HCl) [Compound 50] | 144 |
| CCN(CC)CCNC(=O)C(c1ccc(F)cc1)C1CCCC1 (stereo not shown) (as salt: HCl) | 45 |
| O=C(C(c1ccccc1)C1CCCC1)N1CCC(N2CCOCC2)CC1 (stereo not shown) (as salt: Na) | 111.8 |
| O=C(C(c1ccc(Cl)cc1)C1CCCC1)N1CCC(N2CCCCC2)CC1 (stereo not shown) (as salt: HCl) | 105 |
| CC(C)N1CCN(C2CCN(C(=O)C(c3ccccc3)C3CCCC3)CC2)CC1 (stereo not shown) (as salt: Na) | 109.6 |
| CCNCCNC(=O)C(c1ccccc1)C1CCCC1 (stereo not shown) (as salt: HCl) | 131 |
| O=C(NCCCN1CCN(Cc2c(F)cccc2Cl)CC1)C(c1ccccc1)C1CCCC1 (stereo not shown) (as salt: HCl) | 148 |
| O=C(NCCCN1CCN(Cc2c(F)cccc2Cl)CC1)[C@@H]1C[C@H]1c1ccccc1 (relative stereo) (as salt: HCl) | 145 |

Attribution: patent US20080153917A1
